System: S. Typhi PhoP-promoter GFP reporter, fluorescence, 4 h
Experiment: PhoP regulon inhibitor project modified counter assay, GFP fluorescence readout, dose response (AID 1985)
Listing of recorded pIC50 by entry.
Scale: negative log10 of molar concentration, which is what pIC50 denotes.

Here is how some compounds turned out for pIC50.
[
  {
    "COMPOUND": "O=C(N/N=C/c1c[nH]c2ccccc12)c1cccc(O)c1",
    "RECORDED NUMBER": 3.89
  },
  {
    "COMPOUND": "CC(C)C1N=C(c2ccc3c(c2)OCO3)CC(c2ccccc2O)N1 (stereo not given)",
    "RECORDED NUMBER": 3.92
  },
  {
    "COMPOUND": "Clc1ccc(OCCCN2CCCC2)cc1Cl",
    "RECORDED NUMBER": 4.32
  },
  {
    "COMPOUND": "CN1CCN(c2nc3cc(C(F)(F)F)ccc3n3cccc23)CC1",
    "RECORDED NUMBER": 3.99
  },
  {
    "COMPOUND": "Cc1cc([N+](=O)[O-])nn1CC(=O)N/N=C/c1ccccc1O",
    "RECORDED NUMBER": 4.45
  }
]

As a next step, examine the compound that follows.
If you can, please state the reported pIC50 value of "O=C(Nc1cccc(Br)c1)c1cc2ccccc2o1" .
4.32

====

System: S. Typhi PhoP-promoter GFP reporter, fluorescence, 4 h
Assay: PhoP regulon inhibitor project modified counter assay, GFP fluorescence readout, dose response (AID 1985)
Listing of recorded IC50 by entry.

Here is how some compounds turned out for IC50.
[
  {
    "SMILES INPUT": "O=C(Nc1nnc(C(F)(F)F)s1)c1ccc(Br)s1",
    "TARGET UNDER TEST": "S. Typhi PhoP-promoter GFP reporter, fluorescence, 4 h",
    "IC50": "66.8 µM"
  },
  {
    "SMILES INPUT": "Oc1cccc2ccc(Nc3ccccn3)nc12",
    "TARGET UNDER TEST": "S. Typhi PhoP-promoter GFP reporter, fluorescence, 4 h",
    "IC50": "11.6 µM"
  },
  {
    "SMILES INPUT": "CCOC(=O)N1CCN(CCC(=O)c2ccc(Cl)cc2)CC1",
    "TARGET UNDER TEST": "S. Typhi PhoP-promoter GFP reporter, fluorescence, 4 h",
    "IC50": "108 µM"
  }
]

As a next step, examine the compound that follows.
S. Typhi PhoP-promoter GFP reporter, fluorescence, 4 h / IC50 / "c1ccc(Nc2nc(NCc3ccco3)c3ccccc3n2)cc1" : value?
24 µM

====

Test system: S. Typhi PhoP-promoter GFP reporter, fluorescence, 4 h
Test: PhoP regulon inhibitor project modified counter assay, GFP fluorescence readout, dose response (AID 1985)
pIC50: −log10 of the molar value.
Listing of recorded pIC50 by entry.

Here is how some compounds turned out for pIC50.
[
  {
    "COMPOUND": "Cc1ccc(C(=O)N/C(=C\\c2ccc(-c3ccc(Cl)cc3)o2)C(=O)NCCCN(C)C)cc1",
    "pIC50": 4.07
  },
  {
    "COMPOUND": "CCCCCN=C(N)N/N=C/c1c[nH]c2ccc(OC)cc12",
    "pIC50": 4.45
  },
  {
    "COMPOUND": "c1ccc(-c2nc3ccccc3[nH]2)cc1",
    "pIC50": 4.13
  }
]

If you can, please state the reported pIC50 value of "COc1cc(/C=N/NC(=O)c2cncc(Br)c2)cc([N+](=O)[O-])c1O" .
> 6.64

If you can, please state the reported pIC50 value of "COc1ccc(N2C3=C(CC4=C2CC(C)(C)CC4=O)C(=O)CC(C)(C)C3)cc1" .
3.84
